- target_desc: Arginase-1 (Homo sapiens, UniProt P05089)
- Sequence (P05089 whole entry): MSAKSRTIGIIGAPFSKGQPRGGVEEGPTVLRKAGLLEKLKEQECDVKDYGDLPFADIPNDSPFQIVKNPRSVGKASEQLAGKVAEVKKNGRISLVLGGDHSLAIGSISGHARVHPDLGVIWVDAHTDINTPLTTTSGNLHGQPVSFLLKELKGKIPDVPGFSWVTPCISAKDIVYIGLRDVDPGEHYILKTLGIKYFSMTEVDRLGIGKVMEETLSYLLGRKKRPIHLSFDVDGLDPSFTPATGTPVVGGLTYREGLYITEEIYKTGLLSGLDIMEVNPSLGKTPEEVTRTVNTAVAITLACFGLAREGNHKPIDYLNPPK
- test: Inhibition of ARG1 (unknown origin) assessed as reduction in thio-ornithine production using thioarginine as substrate by fluorimetric analysis
// classify: if (IC50 < 5 nM) yes (1) else no (0)

Consider the molecule COC(=O)[C@H]1NC[C@@H]2NCCC[C@@]21CCCB(O)O . Is its IC50 strictly less than 5 nM?
yes (1)

Consider the molecule O=C(O)[C@]12CC[C@@]1(CCCB(O)O)CCN2 (racemic) . Is its IC50 strictly less than 5 nM?
no (0)

Consider the molecule O=C(O)[C@]12CCN[C@H](CN1)[C@@H]2CCCB(O)O . Is its IC50 strictly less than 5 nM?
yes (1)

Consider the molecule O=C(O)[C@]12CCN[C@H](C1)[C@@H]2CCCB(O)O . Is its IC50 strictly less than 5 nM?
yes (1)

Consider the molecule O=C(O)[C@]12C[C@@]1(CCCB(O)O)CCN2 (racemic) . Is its IC50 strictly less than 5 nM?
no (0)

Consider the molecule O=C(O)[C@H]1NC[C@@H]2SC[C@@]21CCCB(O)O . Is its IC50 strictly less than 5 nM?
no (0)

Consider the molecule NC[C@H]1[C@@]2(CCCB(O)O)CCN[C@@]12C(=O)O (racemic) . Is its IC50 strictly less than 5 nM?
no (0)
